Tested on: MDA-MB-435
Please state which outcome applies, choosing from True (active), False (inactive)

COMPOUND	CLASS LABEL
COc1ccc2[nH]cc(Cc3c[nH]c4ccc(OC)cc34)c2c1	False

Please share the test call associated with CCc1c2c(nc3ccc(OC(=O)OCc4ccc(B5OC(C)(C)C(C)(C)O5)cc4)cc13)-c1cc3c(c(=O)n1C2)COC(=O)[C@]3(O)CC .
True

Please share the test call associated with CN(C)c1ccc2cc3c(cc2c1)Oc1ccccc1N3.[Cl][Zn][Cl] .
False

Please share the test call associated with COc1cc2c(cc1OC)-c1c(c3ccc([N+](=O)[O-])cc3c(=O)n1CCCN=[N+]=[N-])C2=O .
False

Please share the test call associated with O=C(CS(=O)c1nc2ccccc2nc1-c1ccccc1)Nc1ccc(Cl)cc1 (centres undefined) .
False

Please share the test call associated with N#Cc1ccc(O)c(C2=NCC(c3ccc(-c4ccccc4)cc3)O2)c1 (centres undefined) .
False

Please share the test call associated with CCCCNP1(NCCCC)=NP(NCCCC)(NCCCC)=NP(NCCCC)(NCCCC)=NP(NCCCC)(NCCCC)=N1 .
False

Please share the test call associated with O=C(CCN1CCCC1)Nc1ccc2c(Nc3ccc(Br)cc3)c3ccccc3nc2c1 .
False

Please share the test call associated with COc1ccc(C(=O)/C=C/c2c(C(F)(F)F)nc3ccccn23)cc1OC .
False

###

Tested on: SK-OV-3 ovarian
PROTOCOL TEXT: NCI tumour cell line growth inhibition, 48 h
Record Satisfied whenever TGI is at 50 µM or higher; record Not satisfied when lower.

COMPOUND	CLASS LABEL
CN1CCN(C(=O)[C@@]2(C)CC[C@]3(C)CC[C@]4(C)C(=CC[C@@H]5[C@@]6(C)CC[C@H](OC(=O)c7cccnc7)C(C)(C)[C@@H]6CC[C@]54C)[C@@H]3C2)CC1	Not satisfied
Clc1ccc2c(c1)CC1C[N+]3=C(CCCCC3)C1=C2 (stereo not given)	Satisfied
Nc1n[nH]c(N)n1	Satisfied
c1cc2cc(Cc3ccc4[nH]ccc4c3)ccc2[nH]1	Not satisfied
CC(C)c1ccc(C(c2c(O)c3ccccc3oc2=O)c2c(O)c3ccccc3oc2=O)cc1	Satisfied

Given COC(=O)N1C2C(C[C@@]1(C)C(=O)OC)c1ccccc1N2S(=O)(=O)c1ccccc1 (stereo not given in full) , state whether its TGI is at least 50 µM.
Satisfied

Given CC(C)C1CCC(=O)CC1CCCCC1CC(=O)CC1O[Si](C)(C)C(C)(C)C (stereo not given) , state whether its TGI is at least 50 µM.
Not satisfied

Given CN(C)c1ccc2cc3c(cc2c1)Oc1ccccc1N3.[Cl][Zn][Cl] , state whether its TGI is at least 50 µM.
Not satisfied

Given Cc1ccc(-c2nc3ccccc3c(=O)n2NC2OC(CO)C(O)C(O)C2O)cc1 (stereo not given) , state whether its TGI is at least 50 µM.
Satisfied

###

System: HS 578T breast
PROTOCOL TEXT: NCI tumour cell line growth inhibition, 48 h
MEASURED PROPERTY: TGI (µM)
One number for each entry, in µM.

COMPOUND	MEASURED ON	READOUT VALUE
CC(C)C1CCC(=O)CC1CCCCC1CC(=O)CC1O[Si](C)(C)C(C)(C)C (stereo not given)	HS 578T breast	9.89

Could you now consider this next compound?
For the compound C#Cc1cccc(Nc2ncnc3ccc(-c4cnc(N)nc4)cc23)c1 , report TGI.
4.06

# credit: PubChem BioAssay (NCI)
